Each entry below carries its recorded MIC.
system: Mycobacterium kansasii; assay: Antimycobacterial activity against Mycobacterium kansasii 235/80 after 14 days by micromethod; format: functional; settings: 235/80, 336 h
Reply numerically in µM, unit not repeated.

Previously resolved entries follow.
SMILES STRING: CCCCCCCCNC(=O)Oc1ccc(Cl)cc1C(=O)Nc1ccc(Cl)c(Cl)c1
UNIT OF MEASURE: µM
MIC: 2
--
SMILES STRING: CCCCCCCCCCCNC(=O)Oc1ccc(Cl)cc1C(=O)Nc1ccc(Cl)c(Cl)c1
UNIT OF MEASURE: µM
MIC: 4
--
SMILES STRING: CCCCCCCCCNC(=O)Oc1ccc(Cl)cc1C(=O)Nc1cccc(Cl)c1
UNIT OF MEASURE: µM
MIC: 4
--
SMILES STRING: CCCCCCCCNC(=O)Oc1ccc(Cl)cc1C(=O)Nc1ccc(Cl)cc1
UNIT OF MEASURE: µM
MIC: 8

--- query ---
Req: What value of MIC has been recorded for this entry: CCNC(=O)Oc1ccc(Cl)cc1C(=O)Nc1ccc(Cl)cc1
Resp: 4

====

tested on: Mycobacterium avium; assay: Antimycobacterial activity against Mycobacterium avium 330/88 after 14 days by micromethod; assay type: functional; conditions: 330/88, 336 h
PROPERTY: MIC (µM)
Just the number in µM, nothing appended.

SMILES STRING: CCCCCCCCCNC(=O)Oc1ccc(Cl)cc1C(=O)Nc1ccc(Cl)c(Cl)c1
MIC [µM]: 8

Req: Notebook: pull reported MIC for Mycobacterium avium, entry CCCCCCCCCCCNC(=O)Oc1ccc(Cl)cc1C(=O)Nc1cccc(Cl)c1
Resp: 8

Req: What about this compound? CCNC(=O)Oc1ccc(Cl)cc1C(=O)Nc1ccc(Cl)cc1
Resp: 8

Req: // repeat for CCCCNC(=O)Oc1ccc(Cl)cc1C(=O)Nc1cccc(Cl)c1 and report
Resp: 8

Req: What would you report for CCCCCCNC(=O)Oc1ccc(Cl)cc1C(=O)Nc1cccc(Cl)c1 ?
Resp: 8

Req: Okay, and CCCCCCCCNC(=O)Oc1ccc(Cl)cc1C(=O)Nc1ccc(Cl)cc1 ?
Resp: 8

Req: Follow-up entry: CCCCCNC(=O)Oc1ccc(Cl)cc1C(=O)Nc1ccc(Cl)c(Cl)c1
Resp: 8

Req: What about CCCCNC(=O)Oc1ccc(Cl)cc1C(=O)Nc1ccc(Cl)c(Cl)c1 ?
Resp: 8

====

assay: Partition coefficient, log P of the compound; assay type: physicochemical; conditions: octanol/water
Measured logP, listed per entry.
Simply state the number, no unit and no words.

In the examples that follow, each entry is paired with its recorded logP.
SMILES STRING: CCCCCCCCCCNC(=O)Oc1ccc(Cl)cc1C(=O)Nc1ccc(Cl)cc1
NUMERIC VALUE: 7.19
--
SMILES STRING: CCCCNC(=O)Oc1ccc(Cl)cc1C(=O)Nc1ccc(Cl)c(Cl)c1
NUMERIC VALUE: 5.25
--
SMILES STRING: CCCCCCNC(=O)Oc1ccc(Cl)cc1C(=O)Nc1ccc(Cl)c(Cl)c1
NUMERIC VALUE: 6.08
--
SMILES STRING: CCCCCCCCCCNC(=O)Oc1ccc(Cl)cc1C(=O)Nc1cccc(Cl)c1
NUMERIC VALUE: 7.19
--
SMILES STRING: CCCCCCCCCNC(=O)Oc1ccc(Cl)cc1C(=O)Nc1ccc(Cl)cc1
NUMERIC VALUE: 6.78
--
SMILES STRING: CCCCCCNC(=O)Oc1ccc(Cl)cc1C(=O)Nc1cccc(Cl)c1
NUMERIC VALUE: 5.53

Req: Give the measured logP of CCCCCCCCCNC(=O)Oc1ccc(Cl)cc1C(=O)Nc1cccc(Cl)c1 .
Resp: 6.78

Req: Another compound: CCCCCCNC(=O)Oc1ccc(Cl)cc1C(=O)Nc1ccc(Cl)cc1
Resp: 5.53
